- target-under-test: V1a (Homo sapiens)
- protocol-details: In-vitro receptor binding assay (3H-arginine-8-vasopressin), V1a
This listing pairs compounds with measured IC50.

Past entries and their recorded results:
O=C(Nc1ccc(C(=O)N2Cc3ccccc3CC3(C=CCCC3)C2)cc1)c1ccccc1F (centres unmarked) [Compound 128] :: 0.042 µM
COc1cc(C(=O)N2CCC3(C=CCCC3)Cc3ccccc32)ccc1-n1ccc(CO)c1 (centres unmarked) [Compound 178] :: 0.013 µM
O=C(Nc1ccc(C(=O)N2CCC3(C=CCCC3)Cc3ccccc32)cc1)c1ccccc1 (centres unmarked) [Compound 67] :: 0.02 µM
O=C(NCCO)C1=CC2(CC1)CCN(C(=O)c1ccc(NC(=O)c3ccccc3-c3ccccc3)cc1)c1ccccc1C2 (centres unmarked) [Compound 6] :: 0.006 µM

Requested read-out: IC50. Entry: Nc1ccc(C(=O)N2CCC3(CCCCC3)Cc3ccccc32)cc1 [Compound 25]
10 µM

Requested read-out: IC50. Entry: O=C(c1ccc(OC2CCCC2)cc1)N1CCC2(C=CCCC2)Cc2ccccc21 (centres unmarked) [Compound 180]
0.088 µM

Requested read-out: IC50. Entry: CCCCOc1ccc(C(=O)N2CCC3(C=CCCC3)Cc3ccccc32)cc1 (centres unmarked) [Compound 53]
0.06 µM

Requested read-out: IC50. Entry: O=C(c1ccccc1F)N1CCC2(C=CCCC2)Cc2ccccc21 (centres unmarked) [Compound 107]
0.06 µM

----------
- target-under-test: V1a (Homo sapiens)
- protocol-details: In-vitro receptor binding assay (3H-arginine-8-vasopressin), V1a
- test-settings: @ 0.1 μM; read-out: Receptor Binding V1a (% Inh. @ concentration in μM)
measure-name: inhibition at 0.1 µM

Past entries and their recorded results:
Cc1ccc(F)cc1C(=O)Nc1ccc(C(=O)N2CCC3(C=C(CN4CCN(CCN5CCOCC5)CC4)CC3)Cc3ccccc32)c(Cl)c1 (stereo not shown) :: 44%
COc1cc(-n2ccc(C(=O)O)c2)ccc1C(=O)N1CCC2(C=C(C(=O)NCCN(C)C)CC2)Cc2ccccc21 (stereo not shown) :: 0%
O=C(O)c1ccn(-c2ccc(C(=O)N3CCC4(C=CCCC4)Cc4ccccc43)cc2)c1 (stereo not shown) :: 0%
COc1cc(C(=O)N2CCC3(C=C(C(=O)N4CCN(C)CC4)CC3)Cc3ccccc32)ccc1-n1ccc(C(C)=O)c1 (stereo not shown) :: 6%

Requested read-out: inhibition at 0.1 µM. Entry: Cc1ccc(F)cc1C(=O)Nc1ccc(C(=O)N2CCC3(C=C(CO)CC3)Cc3ccccc32)c(Cl)c1 (stereo not shown)
53%

Requested read-out: inhibition at 0.1 µM. Entry: CC(=O)Oc1ccc(C(=O)N2CCC3(C=CCCC3)Cc3ccccc32)cc1 (stereo not shown)
15%

Requested read-out: inhibition at 0.1 µM. Entry: COc1cc(NC(=O)c2cc(F)ccc2C)ccc1C(=O)N1CCC2(C=C(C(=O)O)CC2)Cc2ccccc21 (stereo not shown)
15%

----------
This listing pairs compounds with measured inhibition at 0.125 µM.
- target-under-test: V1a (Homo sapiens, UniProt P37288)
- Sequence (P37288 whole entry): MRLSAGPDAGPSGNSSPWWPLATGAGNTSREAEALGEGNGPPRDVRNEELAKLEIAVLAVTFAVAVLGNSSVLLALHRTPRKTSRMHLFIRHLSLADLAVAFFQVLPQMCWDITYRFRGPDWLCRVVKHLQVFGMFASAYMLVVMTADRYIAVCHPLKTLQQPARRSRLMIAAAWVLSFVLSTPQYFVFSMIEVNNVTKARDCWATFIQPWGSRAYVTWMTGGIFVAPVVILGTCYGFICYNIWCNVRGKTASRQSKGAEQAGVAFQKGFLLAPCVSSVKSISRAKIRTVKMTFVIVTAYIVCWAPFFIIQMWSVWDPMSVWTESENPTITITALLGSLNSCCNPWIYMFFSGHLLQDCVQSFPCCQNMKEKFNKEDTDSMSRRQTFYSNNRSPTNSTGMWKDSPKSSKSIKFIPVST
- protocol-details: In-vitro receptor binding assay (3H-arginine-8-vasopressin), V1a
- test-settings: @ 0.125 μM; read-out: Receptor Binding V1a (% Inh. @ concentration in μM)
Answer in %, number only, no unit symbol.

COC(=O)C1=CC2(CC1)CCN(C(=O)c1ccc(-n3nccc3C)c(N)c1)c1ccccc1C2 (stereo not shown) [Compound 212] :: 29

Requested read-out: inhibition at 0.125 µM. Entry: COC(=O)C1=CC2(CC1)CCN(C(=O)c1ccc(-n3ccc(C)n3)c(N)c1)c1ccccc1C2 (stereo not shown) [Compound 211]
55

Requested read-out: inhibition at 0.125 µM. Entry: CON(C)Cc1ccn(-c2ccc(C(=O)N3CCC4(C=C(C(=O)NCCN(C)C)CC4)Cc4ccccc43)cc2)c1 (stereo not shown) [Compound 210]
6

Requested read-out: inhibition at 0.125 µM. Entry: COC(=O)C1=CC2(CC1)CCN(C(=O)c1ccc(-n3ccc(C)n3)c(N(C)C)c1)c1ccccc1C2 (stereo not shown) [Compound 213]
63

----------
This listing pairs molecules with measured inhibition at 1 µM.
- target-under-test: human V2 receptor (Homo sapiens, UniProt P30518)
- Sequence (P30518 whole entry): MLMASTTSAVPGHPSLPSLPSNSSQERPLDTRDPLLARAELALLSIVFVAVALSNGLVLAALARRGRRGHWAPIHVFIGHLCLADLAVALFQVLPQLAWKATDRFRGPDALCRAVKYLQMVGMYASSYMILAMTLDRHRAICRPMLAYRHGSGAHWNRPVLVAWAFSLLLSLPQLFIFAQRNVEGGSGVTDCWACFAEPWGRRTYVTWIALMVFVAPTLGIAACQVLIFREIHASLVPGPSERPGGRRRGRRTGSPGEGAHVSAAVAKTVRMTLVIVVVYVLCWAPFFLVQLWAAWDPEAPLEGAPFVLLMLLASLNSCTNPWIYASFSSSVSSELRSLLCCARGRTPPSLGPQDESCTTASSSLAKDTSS
- protocol-details: In-vitro receptor binding assay (3H-arginine-8-vasopressin), V2
- test-settings: @ 1 μM; read-out: Receptor Binding V2 (% Inh. @ concentration in μM)
- Method: (A) In-Vitro Binding Assay […] The reaction plates are allowed to sit at room temperature for one hour. The samples are filtered through Unifilter GF/C plates (presoaked in 0.3 polyethyleneimine). The plates are washed 5 times with cold physiological saline containing 0.05% Tween 20. […] The top of the plate is sealed, and the plate is counted. Non-specific binding is determined by the addition of 1.25 μM […]-vasopressin in those wells. % Inh. is calculated as follows: […]
Answer in %, number only, no unit symbol.

Past entries and their recorded results:
O=C(c1ccc(-n2cccn2)c(-n2cccn2)c1)N1CCC2(C=CCCC2)Cc2ccccc21 (stereo not shown) [Compound 155] :: 2
CC(C)CCOc1ccc(C(=O)N2CCC3(C=CCCC3)Cc3ccccc32)cc1 (stereo not shown) [Compound 179] :: 15
CC(C)CCN1CCC(Oc2ccc(C(=O)N3CCC4(C=CCCC4)Cc4ccccc43)cc2F)CC1 (stereo not shown) [Compound 173] :: 0
CN(C)CCNC(=O)C1=C[C@@]2(CC1)CCN(C(=O)c1ccc(N)cc1)c1ccccc1C2 [Compound 192] :: 0
O=C(O)c1ccc(C(=O)N2CCC3(C=CCCC3)Cc3ccccc32)cc1 (stereo not shown) [Compound 65] :: 11
CC(=O)Nc1ccc(C(=O)N2CCC3(C=CCCC3)Cc3ccccc32)cc1 (stereo not shown) [Compound 57] :: 4

In the following, a different molecule is considered.
Requested read-out: inhibition at 1 µM. Entry: COC(=O)c1ccc(C(=O)N2Cc3ccccc3CC3(C=CCCC3)C2)cc1 (stereo not shown) [Compound 149]
54

----------
This listing pairs compounds with measured log10(IC50).
- target-under-test: V1a (Homo sapiens, UniProt P37288)
- protocol-details: In-vitro receptor binding assay (3H-arginine-8-vasopressin), V1a
Scale: log10; quantity: IC50; unit before log: µM

Past entries and their recorded results:
O=C(c1ccc([N+](=O)[O-])cc1)N1CCC2(C=CCCC2)Cc2ccccc21 (centres unmarked) :: -0.42
CCNc1ccc(C(=O)N2CCC3(CCCCC3)Cc3ccccc32)cc1 :: -0.80
O=C(c1cc(F)cc(F)c1)N1CCC2(C=CCCC2)Cc2ccccc21 (centres unmarked) :: -0.41

Requested read-out: log10(IC50). Entry: COc1ccc(C(=O)N2CCC3(CCCCC3=O)Cc3ccccc32)cc1 (centres unmarked)
-1.89

----------
- target-under-test: V1a (Homo sapiens)
- protocol-details: In-vitro receptor binding assay (3H-arginine-8-vasopressin), V1a
API: label(entry) gives t if the entry's IC50 is strictly smaller than 0.2 µM; on equality or larger values it gives f.

O=C(Nc1ccc(C(=O)N2CCC3(C=CCCC3)Cc3ccccc32)c(Cl)c1)c1ccccc1F (stereo not shown) :: f
COc1cc(C(=O)N2CC[C@]3(C=C(C(=O)NCCN(C)C)CC3)Cc3ccccc32)ccc1-n1ccc(CO)c1 :: t
O=C(c1ccc(OC(F)(F)F)cc1)N1CCC2(C=CCCC2)Cc2ccccc21 (stereo not shown) :: f
O=C(c1ccc(F)c(F)c1)N1CCC2(C=CCCC2)Cc2ccccc21 (stereo not shown) :: f
CN(C)CCNC(=O)C1=C[C@@]2(CC1)CCN(C(=O)c1ccc(N)cc1)c1ccccc1C2 :: f
O=Cc1ccn(-c2ccc(C(=O)N3CCC4(C=CCCC4)Cc4ccccc43)cc2)c1 (stereo not shown) :: t
O=C(Nc1ccccc1)c1ccc(C(=O)N2CCCC3(C=CCCC3)c3ccccc32)cc1 (stereo not shown) :: t
O=C(c1ccccc1)N1CCC2(C=CCCC2)Cc2ccccc21 (stereo not shown) :: f

# ---- query molecule ----
Threshold test, IC50 < 0.2 µM: C[S+]([O-])c1ccc(C(=O)N2CCC3(C=CCCC3)Cc3ccccc32)cc1 (stereo not shown)
t

----------
- target-under-test: UniProt P30518
- protocol-details: In-vitro receptor binding assay (3H-arginine-8-vasopressin), V2
- test-settings: @ 10 μM; read-out: Receptor Binding V2 (% Inh. @ concentration in μM)
measure-name: inhibition at 10 µM (%)
Answer in %, number only, no unit symbol.

Past entries and their recorded results:
O=C(c1cccc(Cl)c1)N1CCC2(C=CCCC2)Cc2ccccc21 (centres unmarked) [Compound 46] :: 33
O=C(c1cccc(C(F)(F)F)c1)N1CCC2(C=CCCC2)Cc2ccccc21 (centres unmarked) [Compound 56] :: 0
N#Cc1ccc(C(=O)N2CCC3(CCCCC3)Cc3ccccc32)cc1 [Compound 24] :: 26

Requested read-out: inhibition at 10 µM. Entry: O=C(c1ccc([N+](=O)[O-])cc1)N1CCC2(C=CCCC2)Cc2ccccc21 (centres unmarked) [Compound 49]
30

Requested read-out: inhibition at 10 µM. Entry: O=C(c1ccc(Cl)c(Cl)c1)N1CCC2(C=CCCC2)Cc2ccccc21 (centres unmarked) [Compound 48]
16

Requested read-out: inhibition at 10 µM. Entry: O=C(c1ccc(F)c(F)c1)N1CCC2(C=CCCC2)Cc2ccccc21 (centres unmarked) [Compound 43]
42

Requested read-out: inhibition at 10 µM. Entry: Nc1ccc(C(=O)N2CCC3(CCCCC3)Cc3ccccc32)cc1 [Compound 25]
7

Requested read-out: inhibition at 10 µM. Entry: O=C(c1cccc(Br)c1)N1CCC2(C=CCCC2)Cc2ccccc21 (centres unmarked) [Compound 51]
33
